Below, each of the compounds is paired with its reported IC50 value.
# System tested: EGFR^L858R/T790M/C797S (Homo sapiens, UniProt P00533, C797S/L858R/T790M)
# Sequence (P00533 25-1210 T790M/C797S/L858R): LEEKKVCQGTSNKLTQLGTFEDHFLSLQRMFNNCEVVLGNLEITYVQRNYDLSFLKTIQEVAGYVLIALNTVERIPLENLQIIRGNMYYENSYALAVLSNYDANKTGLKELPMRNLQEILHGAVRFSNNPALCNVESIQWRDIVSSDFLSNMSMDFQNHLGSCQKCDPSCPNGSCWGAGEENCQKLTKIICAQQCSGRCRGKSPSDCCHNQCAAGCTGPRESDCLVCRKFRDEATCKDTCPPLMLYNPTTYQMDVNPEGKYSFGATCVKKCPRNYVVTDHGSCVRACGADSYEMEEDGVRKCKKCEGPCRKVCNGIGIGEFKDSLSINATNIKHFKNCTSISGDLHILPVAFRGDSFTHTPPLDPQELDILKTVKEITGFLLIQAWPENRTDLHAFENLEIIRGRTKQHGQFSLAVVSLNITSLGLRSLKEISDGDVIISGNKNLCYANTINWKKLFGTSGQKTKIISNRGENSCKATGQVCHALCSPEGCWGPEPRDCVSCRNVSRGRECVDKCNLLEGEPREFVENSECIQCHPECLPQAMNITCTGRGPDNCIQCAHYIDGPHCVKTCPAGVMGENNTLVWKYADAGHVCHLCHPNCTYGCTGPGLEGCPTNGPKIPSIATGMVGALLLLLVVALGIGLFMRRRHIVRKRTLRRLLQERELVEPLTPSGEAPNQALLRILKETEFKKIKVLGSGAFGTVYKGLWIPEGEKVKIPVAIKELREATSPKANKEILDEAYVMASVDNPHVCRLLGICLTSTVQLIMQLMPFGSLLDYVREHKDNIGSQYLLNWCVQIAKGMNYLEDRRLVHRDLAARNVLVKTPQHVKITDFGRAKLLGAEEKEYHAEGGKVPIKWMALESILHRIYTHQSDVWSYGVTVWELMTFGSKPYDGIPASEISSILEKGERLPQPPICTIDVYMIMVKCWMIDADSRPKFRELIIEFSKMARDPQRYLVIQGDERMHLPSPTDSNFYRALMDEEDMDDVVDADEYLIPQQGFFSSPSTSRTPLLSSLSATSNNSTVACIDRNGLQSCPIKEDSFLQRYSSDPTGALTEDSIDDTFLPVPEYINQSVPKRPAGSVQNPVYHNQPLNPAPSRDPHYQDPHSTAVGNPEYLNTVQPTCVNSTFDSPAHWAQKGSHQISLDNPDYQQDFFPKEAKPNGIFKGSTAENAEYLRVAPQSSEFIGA
# Method notes: EGFR inhibitory activity assay (TK-substrate-biotin/ATP, 665/615 ratio)
# Format: biochemical
# Condition context: kinase inhibition
# Experimental: EGFR Inhibitory Activity Assay (1) A compound stock solution was prepared and diluted 3× to obtain a compound dilution; 10 nL of the compound dilution was transferred to a 384-well plate (784075, Greiner) by Echo 550; (2) The plate was sealed, and centrifuged at 1,000 g for 1 min; […] (11) The fluorescence values were read at 615 nm and 665 nm by enzyme labeling instrument (PerkinElmer, 74785). The ratio (665/615) of each well was calculated. […]

Compound: COc1cc(N2CCC(N3CCN(C(=O)CCCCCCc4cccc5c4C(=O)N(C4CCC(=O)NC4=O)C5=O)CC3)CC2)ccc1Nc1ncc(Cl)c(Nc2ccccc2P(C)(C)=O)n1 (centres unmarked)
Reading: 1 to 100 nM
//
Compound: COc1cc(N2CCC(N3CCN(CCCCCCCCCOc4cccc5c4C(=O)N(C4CCC(=O)NC4=O)C5=O)CC3)CC2)ccc1Nc1ncc(Cl)c(Nc2ccccc2P(C)(C)=O)n1 (centres unmarked)
Reading: 1 to 100 nM
//
Compound: C=Cc1cnc(Nc2ccc(N3CCC(N4CCN(CCCCCCCCCOc5cccc6c5C(=O)N(C5CCC(=O)NC5=O)C6=O)CC4)CC3)cc2OC)nc1Nc1ccccc1P(C)(C)=O (centres unmarked)
Reading: 101 to 200 nM
//
Compound: COc1cc(N2CCC(N3CCN(CC(=O)N4CC(COc5cccc6c5C(=O)N(C5CCC(=O)NC5=O)C6=O)C4)CC3)CC2)ccc1Nc1ncc(Cl)c(Nc2ccccc2P(C)(C)=O)n1 (centres unmarked)
Reading: 1 to 100 nM

Now for the compound whose IC50 we want.
Input line: Could you tell me which IC50 is on file for COc1cc(N2CCC(N3CCN(CC(=O)N[C@H](COc4cccc5c4C(=O)N(C4CCC(=O)NC4=O)C5=O)C(C)(C)C)CC3)CC2)ccc1Nc1ncc(Cl)c(Nc2ccccc2P(C)(C)=O)n1 (some centres unmarked) ?
Output line: 1 to 100 nM

---

Recorded measurements of GI50, one per entry
# System tested: Ba/F3(EML4-ALK) cells (Homo sapiens)
# Construct: fused on or other part: Q9HC35 (Echinoderm microtubule-associated protein-like 4)
# Sequence (Q9UM73 whole entry, change not shown, the tested form may be a part): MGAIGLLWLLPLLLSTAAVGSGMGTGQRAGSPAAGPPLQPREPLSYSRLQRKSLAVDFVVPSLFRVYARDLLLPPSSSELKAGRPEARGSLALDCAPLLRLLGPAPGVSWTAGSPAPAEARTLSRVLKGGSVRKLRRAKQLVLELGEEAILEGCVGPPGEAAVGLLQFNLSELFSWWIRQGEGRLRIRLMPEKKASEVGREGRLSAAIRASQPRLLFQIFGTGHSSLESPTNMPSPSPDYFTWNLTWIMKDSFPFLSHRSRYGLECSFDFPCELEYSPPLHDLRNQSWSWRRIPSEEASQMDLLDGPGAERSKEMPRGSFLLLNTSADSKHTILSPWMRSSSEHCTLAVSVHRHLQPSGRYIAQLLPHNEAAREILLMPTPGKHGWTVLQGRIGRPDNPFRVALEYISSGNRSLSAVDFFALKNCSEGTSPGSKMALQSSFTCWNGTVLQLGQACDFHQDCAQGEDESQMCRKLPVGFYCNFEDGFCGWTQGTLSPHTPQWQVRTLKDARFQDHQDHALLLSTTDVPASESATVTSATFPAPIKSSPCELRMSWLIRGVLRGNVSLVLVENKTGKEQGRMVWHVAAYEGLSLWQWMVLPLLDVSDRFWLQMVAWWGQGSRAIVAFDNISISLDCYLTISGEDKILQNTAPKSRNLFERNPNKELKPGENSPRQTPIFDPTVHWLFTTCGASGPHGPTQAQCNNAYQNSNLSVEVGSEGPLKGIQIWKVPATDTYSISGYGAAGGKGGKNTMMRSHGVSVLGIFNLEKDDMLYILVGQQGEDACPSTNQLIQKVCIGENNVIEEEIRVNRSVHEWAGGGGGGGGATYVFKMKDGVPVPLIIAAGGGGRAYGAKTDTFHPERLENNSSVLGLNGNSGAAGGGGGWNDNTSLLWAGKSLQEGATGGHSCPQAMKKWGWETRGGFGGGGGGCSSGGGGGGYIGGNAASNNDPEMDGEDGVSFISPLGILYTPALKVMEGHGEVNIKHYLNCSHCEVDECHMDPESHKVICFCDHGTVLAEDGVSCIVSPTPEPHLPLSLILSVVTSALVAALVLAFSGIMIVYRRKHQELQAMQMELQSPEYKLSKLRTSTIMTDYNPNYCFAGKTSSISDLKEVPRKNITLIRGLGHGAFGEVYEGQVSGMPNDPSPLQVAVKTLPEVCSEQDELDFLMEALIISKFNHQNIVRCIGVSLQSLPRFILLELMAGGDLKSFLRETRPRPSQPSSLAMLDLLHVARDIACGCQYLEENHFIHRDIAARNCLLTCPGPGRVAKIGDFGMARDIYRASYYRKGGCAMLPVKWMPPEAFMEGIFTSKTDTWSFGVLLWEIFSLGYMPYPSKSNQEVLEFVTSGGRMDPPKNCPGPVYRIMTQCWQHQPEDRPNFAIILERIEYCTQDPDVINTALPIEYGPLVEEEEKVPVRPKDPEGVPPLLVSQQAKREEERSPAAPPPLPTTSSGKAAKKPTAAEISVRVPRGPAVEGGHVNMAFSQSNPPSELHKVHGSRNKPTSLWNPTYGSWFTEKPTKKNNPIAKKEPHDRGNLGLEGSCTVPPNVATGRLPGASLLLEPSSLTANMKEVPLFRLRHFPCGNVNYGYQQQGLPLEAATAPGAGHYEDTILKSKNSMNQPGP
# Method notes: Assay of activity on Ba/F3(EML4-ALK) cells (CTG, 72 h)
# Format: cell-based
# Condition context: read-out: IC50 (nM) Ba/F3(EML4-ALK)

Consider the following illustrative entries.
Molecule: COc1cc(N2CCC(N3CCN(CCCCCCCNc4cccc5c4CN(C4CCC(=O)NC4=O)C5=O)CC3)CC2)ccc1Nc1ncc(Cl)c(Nc2ccccc2P(C)(C)=O)n1 (stereo not drawn)
GI50: 1 to 100 nM

Molecule: COc1cc(N2CCC(N3CCN(CCCOCC#Cc4cccc5c4CN(C4CCC(=O)NC4=O)C5=O)CC3)CC2)ccc1Nc1ncc(Cl)c(Nc2ccccc2P(C)(C)=O)n1 (stereo not drawn)
GI50: 1 to 100 nM

Shifting focus to the molecule that follows.
Input line: Provide the documented GI50 with Ba/F3(EML4-ALK) cells (Homo sapiens) as the system for COc1cc(N2CCC3(CCN(CCCCC#Cc4cccc5c4CN(C4CCC(=O)NC4=O)C5=O)CC3)CC2)c(C)cc1Nc1ncc(Br)c(Nc2ccc3nccnc3c2P(C)(C)=O)n1 (stereo not drawn)
Output line: 1 to 100 nM
